Just for reference, patent US9884806B2 is where these values come from.

# maps each entry to its pIC50
- EXPERIMENTAL_TARGET: first bromodomain (BrD1) of human BRD4 (Homo sapiens, UniProt O60885)
- Construct: the first bromodomain (BrD1) of human BRD4; poly-His (cleaved yes)
- EXPERIMENT: Fluorescence anisotropy binding assay (competition with FITC-labeled MS417 probe)
- RUN_CONDITIONS: FITC-MS417 probe 80 nM, PBS pH 7.4, 1 hour, 25° C., read-out: BRD4_1 IC50
pIC50: −log10 of the molar value.
RECORDED_ENDPOINT: pIC50

>  <MOLECULE>
CC1=C(Nc2cc(NCc3ccccc3F)ccc2Cl)CCCC1=O [Example 05-74]

>  <VALUE>
> 6.00

$$$$
>  <MOLECULE>
CC1=C(Nc2ccc(NS(=O)(=O)c3ccccc3C)cc2Cl)CCC1=O [Example 05-63]

>  <VALUE>
> 6.00

$$$$
>  <MOLECULE>
CC1=C(Nc2cc(S(N)(=O)=O)ccc2Cl)CCC1=O [Example 01-46]

>  <VALUE>
5.00 to 6.00

$$$$
>  <MOLECULE>
COc1ccc(NC(=O)c2ccc(Cl)c(NC3=C(C#N)C(=O)CCC3)c2)c(C)c1 [Example 05-36]

>  <VALUE>
< 5.00

$$$$
>  <MOLECULE>
CC1=C(Nc2ccc(C(N)=O)cc2)CCCC1=O [Example 01-35]

>  <VALUE>
5.00 to 6.00

$$$$
>  <MOLECULE>
CC1=C(Nc2ccc3cnccc3c2)CCCC1=O [Example 01-55]

>  <VALUE>
5.00 to 6.00

$$$$
>  <MOLECULE>
CC1=C(Nc2ccc(N)cc2Cl)CCC1=O [Example 02-14]

>  <VALUE>
5.00 to 6.00

$$$$
>  <MOLECULE>
CC1=C(Nc2ccc(C(=O)N(C)C)cc2)CCC1=O [Example 03-20]

>  <VALUE>
< 5.00

$$$$
>  <MOLECULE>
COc1ccc(NC(=O)c2ccc(NC3=C(C)C(=O)CC3)cc2OC)cc1 [Example 04-71]

>  <VALUE>
5.00 to 6.00

$$$$

* * *

# maps each entry to its pIC50
- EXPERIMENTAL_TARGET: first bromodomain (BrD1) of human BRD4 (Homo sapiens, UniProt O60885)
- Construct: the first bromodomain (BrD1) of human BRD4; poly-His (cleaved yes)
- EXPERIMENT: Fluorescence anisotropy binding assay (competition with FITC-labeled MS417 probe)
- RUN_CONDITIONS: FITC-MS417 probe 80 nM, PBS pH 7.4, 1 hour, 25° C., read-out: BRD4_1 IC50
pIC50: −log10 of the molar value.
RECORDED_ENDPOINT: pIC50

>  <COMPOUND>
COC(=O)c1ccc(NC2=C(C)C(=O)CC2)c(I)c1 [Example 01-43]

>  <EXPERIMENTAL_TARGET>
first bromodomain (BrD1) of human BRD4 (Homo sapiens, UniProt O60885)

>  <VALUE>
5.00 to 6.00

$$$$
>  <COMPOUND>
CC1=C(Nc2ccc(C(=O)Nc3cccc4ccccc34)c(Cl)c2)CCC1=O [Example 04-44]

>  <EXPERIMENTAL_TARGET>
first bromodomain (BrD1) of human BRD4 (Homo sapiens, UniProt O60885)

>  <VALUE>
5.00 to 6.00

$$$$
>  <COMPOUND>
CC1=C(Nc2nccnc2Cl)CCCC1=O [Example 01-50]

>  <EXPERIMENTAL_TARGET>
first bromodomain (BrD1) of human BRD4 (Homo sapiens, UniProt O60885)

>  <VALUE>
< 5.00

$$$$
>  <COMPOUND>
CC1=C(Nc2ccc(C(=O)Nc3cccc4ccccc34)cc2Cl)CCC1=O [Example 04-15]

>  <EXPERIMENTAL_TARGET>
first bromodomain (BrD1) of human BRD4 (Homo sapiens, UniProt O60885)

>  <VALUE>
> 6.00

$$$$
>  <COMPOUND>
CC1=C(Nc2cc(NC(=O)c3cccc4ccccc34)ccc2Cl)CCCC1=O [Example 05-46]

>  <EXPERIMENTAL_TARGET>
first bromodomain (BrD1) of human BRD4 (Homo sapiens, UniProt O60885)

>  <VALUE>
> 6.00

$$$$
>  <COMPOUND>
CC1=C(Nc2cccc(S(N)(=O)=O)c2)CCC1=O [Example 01-45]

>  <EXPERIMENTAL_TARGET>
first bromodomain (BrD1) of human BRD4 (Homo sapiens, UniProt O60885)

>  <VALUE>
5.00 to 6.00

$$$$
>  <COMPOUND>
COc1cccc(NC(=O)c2ccc(NC3=C(C)C(=O)CC3)cc2)c1 [Example 03-11]

>  <EXPERIMENTAL_TARGET>
first bromodomain (BrD1) of human BRD4 (Homo sapiens, UniProt O60885)

>  <VALUE>
5.00 to 6.00

$$$$
>  <COMPOUND>
CC1=C(Nc2ccc3ncncc3c2)CCCC1=O [Example 01-61]

>  <EXPERIMENTAL_TARGET>
first bromodomain (BrD1) of human BRD4 (Homo sapiens, UniProt O60885)

>  <VALUE>
< 5.00

$$$$
>  <COMPOUND>
CC1=C(Nc2cnc3ccccc3c2)CCCC1=O [Example 01-59]

>  <EXPERIMENTAL_TARGET>
first bromodomain (BrD1) of human BRD4 (Homo sapiens, UniProt O60885)

>  <VALUE>
5.00 to 6.00

$$$$
>  <COMPOUND>
CC1=C(Nc2ccc(Cl)cc2C(=O)O)CCC1=O [Examples 02-5]

>  <EXPERIMENTAL_TARGET>
first bromodomain (BrD1) of human BRD4 (Homo sapiens, UniProt O60885)

>  <VALUE>
< 5.00

$$$$

* * *

# maps each entry to its IC50
- EXPERIMENTAL_TARGET: BRD4_2 (Homo sapiens, UniProt O60885)
- Construct: contains two tandem bromodomains (BrD1 and BrD2)
- EXPERIMENT: Fluorescence anisotropy binding assay (competition with FITC-labeled MS417 probe), BRD4_2
- RUN_CONDITIONS: FITC-MS417 probe 80 nM, PBS pH 7.4, 1 hour, 25° C.

>  <MOL_SMILES>
CC1=C(Nc2cc(C(=O)O)ccc2Br)CCCC1=O

>  <IC50>
> 10 µM

$$$$
>  <MOL_SMILES>
CC1=C(Nc2ccc(C(=O)NC3CCCCC3)c(Cl)c2)CCC1=O

>  <IC50>
> 10 µM

$$$$
>  <MOL_SMILES>
CC1=C(Nc2ccc(-c3cn(Cc4ccccc4)nn3)cc2)CCC1=O

>  <IC50>
1 to 10 µM

$$$$
>  <MOL_SMILES>
CC1=C(Nc2ccc(C(=O)Nc3cccc4ccccc34)cc2Cl)CCC1=O

>  <IC50>
1 to 10 µM

$$$$
>  <MOL_SMILES>
CC1=C(Nc2ccc3nccnc3c2)CCCC1=O

>  <IC50>
1 to 10 µM

$$$$
>  <MOL_SMILES>
CC1=C(Nc2cc(N)ccc2Cl)CCCC1=O

>  <IC50>
1 to 10 µM

$$$$
>  <MOL_SMILES>
CC1=C(Nc2cc(NS(=O)(=O)N3CCCCC3)ccc2Cl)CCC1=O

>  <IC50>
< 1 µM

$$$$
>  <MOL_SMILES>
COC(=O)c1ccc(NC2=C(C)C(=O)CC2)c(F)c1

>  <IC50>
> 10 µM

$$$$
>  <MOL_SMILES>
CC1=C(Nc2ccc(NCc3ccccc3C)cc2Cl)CCCC1=O

>  <IC50>
> 10 µM

$$$$
>  <MOL_SMILES>
COC(=O)c1ccc(Cl)cc1NC1=C(C)C(=O)CC1

>  <IC50>
> 10 µM

$$$$
>  <MOL_SMILES>
CC(=O)Nc1ccc(Cl)c(NC2=C(C)C(=O)CC2)c1

>  <IC50>
1 to 10 µM

$$$$
>  <MOL_SMILES>
CC1=C(Nc2cccc(C(=O)Nc3ccccc3C)c2)CCC1=O

>  <IC50>
1 to 10 µM

$$$$
>  <MOL_SMILES>
COc1cc(NC2=C(C)C(=O)CC2)ccc1C(=O)Nc1cccc2ccccc12

>  <IC50>
> 10 µM

$$$$
>  <MOL_SMILES>
CC1=C(Nc2cc(C(=O)O)ccc2Cl)CCC1=O

>  <IC50>
> 10 µM

$$$$
>  <MOL_SMILES>
COC(=O)c1cc(Cl)ccc1NC1=C(C)C(=O)CC1

>  <IC50>
> 10 µM

$$$$
>  <MOL_SMILES>
CC1=C(Nc2cc3ccccc3cn2)CCCC1=O

>  <IC50>
1 to 10 µM

$$$$
>  <MOL_SMILES>
COc1ccc(C(=O)Nc2ccc(Cl)c(NC3=C(C)C(=O)CC3)c2)cc1

>  <IC50>
> 10 µM

$$$$
>  <MOL_SMILES>
COc1ccc(NC(=O)c2ccc(NC3=C(C)C(=O)CC3)cc2Cl)cc1

>  <IC50>
1 to 10 µM

$$$$
>  <MOL_SMILES>
C#Cc1cccc(NC2=C(C)C(=O)CC2)c1

>  <IC50>
> 10 µM

$$$$
>  <MOL_SMILES>
CC1=C(Nc2ccc(Nc3ccccc3C)cc2Cl)CCCC1=O

>  <IC50>
> 10 µM

$$$$
